tested on: MT-4 cells (mock-infected); assay: cytotoxicity in mock-infected MT-4 cells (MTT); type: cell-based
The threshold is 10 µM. Values of CC50 beneath it are tagged TRUE; values meeting or exceeding it are tagged FALSE.

Decide: CC50 of CC(C)c1cc(Br)c(Nc2ccnc(Nc3ccc(C#N)cc3)n2)c(Br)c1 strictly below 10 µM?
TRUE

Decide: CC50 of Cc1cc(C(C)(C)C)cc(C)c1Nc1ccnc(Nc2ccc(C#N)cc2)n1 strictly below 10 µM?
TRUE

Decide: CC50 of Cc1cc(C)c(Nc2ccnc(Nc3ccc(F)cc3F)n2)c(C)c1 strictly below 10 µM?
FALSE

Decide: CC50 of Cc1cccc(C)c1Nc1ccnc(Nc2ccc(C#N)cc2)n1 strictly below 10 µM?
TRUE

Decide: CC50 of N#Cc1ccc(Nc2nccc(Nc3c(F)cc(Br)cc3Br)n2)cc1 strictly below 10 µM?
TRUE

Decide: CC50 of CC(C)OCCCNc1cc(Cc2c(Cl)cccc2Cl)nc(Nc2ccc(C#N)cc2)n1 strictly below 10 µM?
FALSE

Decide: CC50 of CCCC(=O)Nc1cc(Cc2c(Cl)cccc2Cl)nc(Nc2ccc(C#N)cc2)n1 strictly below 10 µM?
FALSE

Decide: CC50 of N#Cc1ccc(Nc2nc(Cc3c(Cl)cccc3Cl)cc(NCc3ccccc3)n2)cc1 strictly below 10 µM?
FALSE

Decide: CC50 of N#Cc1ccc(Nc2nccc(Nc3c(Cl)cc(F)cc3Br)n2)cc1 strictly below 10 µM?
TRUE

Decide: CC50 of N#Cc1ccc(Nc2nc(Cc3c(Cl)cccc3Cl)cc(NO)n2)cc1 strictly below 10 µM?
TRUE

Decide: CC50 of COc1cccc(CCNc2cc(Cc3c(Cl)cccc3Cl)nc(Nc3ccc(C#N)cc3)n2)c1 strictly below 10 µM?
FALSE

Decide: CC50 of Cc1cc(Br)cc(C)c1Nc1ccnc(Nc2ccc(C#N)cc2)n1 strictly below 10 µM?
TRUE

Decide: CC50 of CCCCCCCCCCCC(=O)Nc1cc(Cc2c(Cl)cccc2Cl)nc(Nc2ccc(C#N)cc2)n1 strictly below 10 µM?
FALSE

Decide: CC50 of N#Cc1ccc(Nc2nccc(Nc3c(Cl)cc(Cl)cc3Cl)n2)cc1 strictly below 10 µM?
TRUE

Decide: CC50 of N#Cc1ccc(Nc2nccc(Sc3c(Cl)cccc3Cl)n2)cc1 strictly below 10 µM?
FALSE

Decide: CC50 of Cc1cc(Cl)cc(Cl)c1Nc1ccnc(Nc2ccc(C#N)cc2)n1 strictly below 10 µM?
TRUE

Decide: CC50 of Cc1cnc(Nc2ccc(C#N)cc2)nc1Nc1c(C)cc(Br)cc1C strictly below 10 µM?
TRUE

Decide: CC50 of N#Cc1ccc(Nc2nc(Cc3c(Cl)cccc3Cl)cc(NCCCN3CCCC3=O)n2)cc1 strictly below 10 µM?
FALSE

Decide: CC50 of Cc1cc(C)c(Nc2ccnc(Nc3ccc(C#N)c(O)c3)n2)c(C)c1 strictly below 10 µM?
TRUE

Decide: CC50 of Cc1cc(C)c(Sc2nc(Nc3ccc(C#N)cc3)ncc2C)c(C)c1 strictly below 10 µM?
FALSE

Decide: CC50 of CNc1cc(Cc2c(Cl)cccc2Cl)nc(Nc2ccc(C#N)cc2)n1 strictly below 10 µM?
FALSE

Decide: CC50 of CCCc1cc(Br)c(Nc2ccnc(Nc3ccc(C#N)cc3)n2)c(Br)c1 strictly below 10 µM?
TRUE

Decide: CC50 of Cc1cc(C)c(Nc2ccnc(Nc3ccc(Br)cn3)n2)c(C)c1 strictly below 10 µM?
FALSE

Decide: CC50 of N#Cc1ccc(Nc2nc(N)cc(Cc3c(Cl)cccc3Cl)n2)cc1 strictly below 10 µM?
FALSE

Decide: CC50 of Clc1cccc(Cl)c1Nc1ccnc(Nc2c(Cl)cccc2Cl)n1 strictly below 10 µM?
FALSE

Decide: CC50 of N#Cc1ccc(Nc2nccc(Nc3c(Cl)cc(OC(F)(F)F)cc3Cl)n2)cc1 strictly below 10 µM?
TRUE
